- Test system: VCap cells
- assay-protocol: Inhibition of proliferation of VCap cells (Cell Titer Glo, 6 days)
- Format: cell-based
- condition-notes: Homo sapiens, VCaP, 144 h

compound | target-system | IC50 (µM)
CC1(C)C(=O)N(c2ccc(C#N)c(Cl)c2)c2ccc(-c3ncc(N4CC(CN5CCN(c6ccc7c(c6)C(=O)N(C6CCC(=O)NC6=O)C7=O)CC5)C4)cn3)cc21 (stereo not shown) | VCap cells | 0.081
CC1(C)C(=O)N(c2ccc(C#N)c(C(F)(F)F)c2)c2ccc(-c3ccc(N4CC(CN5CCN(c6ccc7c(c6)C(=O)N(C6CCC(=O)NC6=O)C7=O)CC5)C4)nc3F)cc21 (stereo not shown) | VCap cells | 0.082
CC1(C)C(=O)N(c2ccc(C#N)c(Cl)c2)c2ccc(-c3ccc(N4CC(CN5CCN(c6ccc7c(c6)C(=O)N(C6CCC(=O)NC6=O)C7=O)CC5)C4)nc3F)cc21 (stereo not shown) | VCap cells | 0.067
CC1(C)C(=O)N(c2ccc(C#N)c(Cl)c2)c2ccc(-c3ccc(N4CC(CN5CCN(c6ccc7c(c6)C(=O)N(C6CCC(=O)NC6=O)C7=O)CC5)C4)nc3)cc21 (stereo not shown) | VCap cells | 0.061

----------
Listed compounds paired with reported DC50
- target-system: androgen receptor (Homo sapiens)
- Construct: endogenous in cells; host or cells: VCaP cells
- assay-protocol: In-Cell-Western determination of androgen receptor degradation in VCaP cells
- Format: cell-based
- condition-notes: concentration for half of the maximal degradation of AR in VCaP cells; 24 hours treatment

compound | DC50 (nM)
CC1(C)C(=O)N(c2ccc(C#N)c(Cl)c2)c2ccc(-c3ccc(N4CC(CN5CCN(c6ccc7c(c6)C(=O)N(C6CCC(=O)NC6=O)C7=O)CC5)C4)nc3F)cc21 (stereo not shown) | 94
CC1(C)C(=O)N(c2ccc(C#N)c(Cl)c2)c2ccc(-c3ccc(N4CC(CN5CCN(c6ccc7c(c6)C(=O)N(C6CCC(=O)NC6=O)C7=O)CC5)C4)cc3)cc21 (stereo not shown) | 35
CC1(C)C(=O)N(c2ccc(C#N)c(C(F)(F)F)c2)c2ccc(-c3ccc(N4CC(CN5CCN(c6ccc7c(c6)C(=O)N(C6CCC(=O)NC6=O)C7=O)CC5)C4)cc3)cc21 (stereo not shown) | 76
CC1(C)C(=O)N(c2ccc(C#N)c(Cl)c2)c2ccc(-c3ccc(N4CC(CN5CCN(c6ccc7c(c6)C(=O)N(C6CCC(=O)NC6=O)C7=O)CC5)C4)nc3)cc21 (stereo not shown) | 121

----------
- target-system: androgen receptor (Homo sapiens, UniProt P10275, T878A)
- Construct: endogenous in cells; host or cells: LNCaP cells
- Sequence (P10275 whole entry T878A): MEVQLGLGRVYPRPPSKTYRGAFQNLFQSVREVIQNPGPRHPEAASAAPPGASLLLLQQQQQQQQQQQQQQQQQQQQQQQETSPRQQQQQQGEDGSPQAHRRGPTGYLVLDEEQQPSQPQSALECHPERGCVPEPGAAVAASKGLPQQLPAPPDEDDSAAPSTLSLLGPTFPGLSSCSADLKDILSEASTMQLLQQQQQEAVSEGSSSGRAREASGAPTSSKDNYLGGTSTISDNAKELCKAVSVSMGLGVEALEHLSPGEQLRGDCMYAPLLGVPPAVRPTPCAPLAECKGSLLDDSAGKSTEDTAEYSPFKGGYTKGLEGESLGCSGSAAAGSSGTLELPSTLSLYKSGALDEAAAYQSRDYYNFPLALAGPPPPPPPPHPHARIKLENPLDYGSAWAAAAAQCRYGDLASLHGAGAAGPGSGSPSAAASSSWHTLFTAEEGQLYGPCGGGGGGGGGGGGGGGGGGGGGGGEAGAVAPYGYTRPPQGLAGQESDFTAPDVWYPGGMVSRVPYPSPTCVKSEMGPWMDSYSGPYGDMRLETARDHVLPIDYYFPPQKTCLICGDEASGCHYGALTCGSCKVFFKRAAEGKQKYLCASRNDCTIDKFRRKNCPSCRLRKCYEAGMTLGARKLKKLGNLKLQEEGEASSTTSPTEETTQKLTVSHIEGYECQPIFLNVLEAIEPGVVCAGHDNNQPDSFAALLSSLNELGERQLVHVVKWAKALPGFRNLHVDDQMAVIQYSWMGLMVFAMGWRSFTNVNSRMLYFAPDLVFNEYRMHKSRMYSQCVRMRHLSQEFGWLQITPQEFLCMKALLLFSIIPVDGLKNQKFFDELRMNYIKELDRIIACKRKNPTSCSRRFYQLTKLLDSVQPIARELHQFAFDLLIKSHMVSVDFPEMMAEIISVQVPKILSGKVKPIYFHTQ
- assay-protocol: In-Cell-Western determination of androgen receptor degradation in LnCaP cells
- Type: cell-based
- condition-notes: concentration for half of the maximal degradation of AR in LnCaP cells; 24 hours treatment
- Procedure: The determination evaluated the properties of the compounds in Lncap cells. Intracellular androgen receptor was determined by In-Cell-Western according to the determination steps described below. […] 2. The expression level of intracellular androgen receptor after compound treatment was […] and determined according to the following method. […]
metric-name: DC50 (nM)

compound | metric-name | value-reported
CC1(C)C(=O)N(c2ccc(C#N)c(C(F)(F)F)c2)c2ccc(-c3ccc(N4CC(CN5CCN(c6ccc7c(c6)C(=O)N(C6CCC(=O)NC6=O)C7=O)CC5)C4)cc3)cc21 (stereo not drawn) [Compound 3] | DC50 | 87.1
CC1(C)C(=O)N(c2ccc(C#N)c(Cl)c2)c2ccc(-c3ccc(-c4cnn(CCN5CCN(c6ccc7c(c6)C(=O)N(C6CCC(=O)NC6=O)C7=O)CC5)c4)cc3)cc21 (stereo not drawn) [Compound 12] | DC50 | 78.8
CC1(C)C(=O)N(c2ccc(C#N)c(Cl)c2)c2ccc(-c3ccc(-c4cnn(CCCN5CCN(c6ccc7c(c6)C(=O)N(C6CCC(=O)NC6=O)C7=O)CC5)c4)cc3)cc21 (stereo not drawn) [Compound 13] | DC50 | 73.4
